result type: melting point

Please report the recorded melting point for Cc1ccc2c(C(=O)CN3CCCC3)cn(S(=O)(=O)c3ccccc3)c2c1 .
124 to 126 °C

Please report the recorded melting point for CCc1ccc(S(=O)(=O)n2cc(C(=O)CSc3nnc(-c4ccccc4)o3)c3ccc(C)cc32)cc1 .
122 to 124 °C

Please report the recorded melting point for Cc1ccc2c(C(=O)CN3CCCCC3)cn(S(=O)(=O)c3ccccc3)c2c1 .
132 to 134 °C

Next molecule, please.
Please report the recorded melting point for Cc1ccc2c(C(=O)CN3CCOCC3)cn(S(=O)(=O)c3ccccc3)c2c1 .
174 to 176 °C

----------
# CC50 at 3 days per record follows
protocol: MTT-based cytotoxicity assay
condition set: human, C8166 cells, concentration that causes 50% reduction in total C8166 cell number, means of two separate experiments, read-out: CC50 (50% cytotoxic concentration)
I only need the number, in µM, no unit after it.

Please report the recorded CC50 at 3 days for Cc1ccc2c(C(=O)CN(C(C)C)C(C)C)cn(S(=O)(=O)c3ccccc3)c2c1 .
220

Please report the recorded CC50 at 3 days for Cc1cn([C@H]2C[C@H](N=[N+]=[N-])[C@@H](CO)O2)c(=O)[nH]c1=O [AZT, 3'-azido-3'-deoxythymidine, reference compound] .
4260

Please report the recorded CC50 at 3 days for Cc1ccc2c(C(=O)CN3CCCC3)cn(S(=O)(=O)c3ccccc3)c2c1 .
226

Please report the recorded CC50 at 3 days for CCCCNCC(=O)c1cn(S(=O)(=O)c2ccccc2)c2cc(C)ccc12 .
43.8

Further cases:
Please report the recorded CC50 at 3 days for CCc1ccc(S(=O)(=O)n2cc(C(=O)CSc3nnc(-c4ccccc4)o3)c3ccc(C)cc32)cc1 .
309

----------
protocol: MTT-based cytotoxicity assay
condition set: human, C8166 cells, concentration that causes 50% reduction in total C8166 cell number, means of two separate experiments, read-out: CC50 (50% cytotoxic concentration)
# CC50 at 3 days per record follows

Recorded results for 2 compounds are shown here.
Please report the recorded CC50 at 3 days for Cc1ccc2c(C(=O)CN3CCOCC3)cn(S(=O)(=O)c3ccccc3)c2c1 .
> 502 µM

Please report the recorded CC50 at 3 days for Cc1ccc2c(C(=O)CN3CCCCC3)cn(S(=O)(=O)c3ccccc3)c2c1 .
> 504 µM

Further cases:
Please report the recorded CC50 at 3 days for CCc1ccc(S(=O)(=O)n2cc(C(=O)CN3CCOCC3)c3ccc(C)cc32)cc1 .
> 469 µM
